Reference source for all entries: patent US6916831B2

- Tested on: bone carcinoma (HOS)
- test: Cytotoxicity, SRB assay, HOS cells
- Type: cell-based, human
- experimental_parameters: 50% reduction in adsorbance at 562 nm relative to untreated cells

compound | comparison_sign | ED50 HOS (µg/mL)
COC(=O)Cc1cccc2c(=O)cc(-c3ccccc3)[nH]c12 [Compound 9, 2-Phenyl-4-quinolone-8-methyl acetate] | > | 20
O=C(O)Cc1cccc2c1N=C(c1ccccc1F)CC2=O | = | 0.04
O=C(O)Cc1cccc2c1N=C(c1ccccc1)CC2=O | = | 0.07
COC(=O)Cc1cccc2c(O)cc(-c3ccccc3F)nc12 | > | 10

* * *

Listed here are molecules together with their documented ED50 SKMEL-2.
- Tested on: human melanoma cancer (SKMEL-2)
- test: Cytotoxicity, SRB assay, SKMEL-2 cells
- Type: cell-based
- experimental_parameters: 50% reduction in adsorbance at 562 nm relative to untreated cells
quantity: ED50 SKMEL-2

molecule | value_reported
O=C(O)Cc1cccc2c1N=C(c1ccccc1)CC2=O [Compound 11, 2-Phenyl-4-quinolone-8-acetic acid] | 0.06 µg/mL
O=C(O)Cc1ccc2c(=O)cc(-c3ccccc3F)[nH]c2c1 [Compound 4] | > 20 µg/mL
COC(=O)Cc1cccc2c(=O)cc(-c3ccccc3)[nH]c12 [Compound 9, 2-Phenyl-4-quinolone-8-methyl acetate] | > 20 µg/mL
O=C(O)Cc1cccc2[nH]c(-c3ccccc3F)cc(=O)c12 [Compound 2] | > 20 µg/mL
COC(=O)Cc1cccc2c(O)cc(-c3ccccc3F)nc12 [Compound 10] | > 10 µg/mL
O=C(O)Cc1cccc2c1N=C(c1ccccc1F)CC2=O [Compound 12] | 0.05 µg/mL
